- System: 996289-038-R-J1-PDC spheroid viability
- Test: Anticancer human tumor 996289-038-R-J1-PDC patient-derived colon adenocarcinoma cell line growth inhibition [PI3K]
- Condition details: second compound 0.1 µM; first compound 10 µM; hits give low values; spheroids with HUVEC and MSC
Answer each item with its documented viability, T/C.
Give bare numbers, in %.

Answered cases to consult:
Cn1ncc(Cl)c1-c1cc(C(=O)NC(CN)Cc2cccc(F)c2)sc1Cl (stereo not given) + COc1c(OCCCN2CCOCC2)ccc2c3n(c(=NC(=O)c4cnc(N)nc4)nc12)CCN3: 20.5
CC1(C)CCC(CN2CCN(c3ccc(C(=O)NS(=O)(=O)c4ccc(NCC5CCOCC5)c([N+](=O)[O-])c4)c(Oc4cnc5[nH]ccc5c4)c3)CC2)=C(c2ccc(Cl)cc2)C1 + CC(Nc1ccc2c(c1)OCCn1cc(N3C(=O)OCC3C(F)F)nc1-2)C(N)=O: 29.4
C[C@@H](NC(=O)c1ncnc(N)c1Cl)c1ncc(C(=O)Nc2cc(C(F)(F)F)c(Cl)cn2)s1 + COc1c(OCCCN2CCOCC2)ccc2c3n(c(=NC(=O)c4cnc(N)nc4)nc12)CCN3: 58.7
CNC(=O)c1ccc(N2C(=S)N(c3ccc(C#N)c(C(F)(F)F)c3)C(=O)C2(C)C)cc1F + Cc1nc(NC(=O)N2CCCC2C(N)=O)sc1-c1ccnc(C(C)(C)C(F)(F)F)c1: 90.3

Now take the following molecule into account.
I would be grateful if you could share the reported viability, T/C for CC(C)NCC(C(=O)N1CCN(c2ncnc3c2C(C)CC3O)CC1)c1ccc(Cl)cc1 (stereo not given) + COc1c(OCCCN2CCOCC2)ccc2c3n(c(=NC(=O)c4cnc(N)nc4)nc12)CCN3 .
36.7

###

Would you mind telling me the reported viability, T/C of each entry?
- System: 996289-038-R-J1-PDC spheroid viability
- Test: Anticancer human tumor 996289-038-R-J1-PDC cell line growth inhibition [PI3K]
- Condition details: second compound 0.0316 µM; first compound 3 µM; hits give low values; spheroids with HUVEC and MSC
Answers are plain numbers, in %.

Before answering, review these 2 worked examples.
Cn1cnc2c(F)c(Nc3ccc(Br)cc3Cl)c(C(=O)NOCCO)cc21 + CC(Nc1ccc2c(c1)OCCn1cc(N3C(=O)OCC3C(F)F)nc1-2)C(N)=O: 23.7
Cn1cnc2c(F)c(Nc3ccc(Br)cc3Cl)c(C(=O)NOCCO)cc21 + Cc1nc(NC(=O)N2CCCC2C(N)=O)sc1-c1ccnc(C(C)(C)C(F)(F)F)c1: 23.6

Could you tell me viability, T/C for each of these molecules? They are listed below.
1. Cn1cnc2c(F)c(Nc3ccc(Br)cc3Cl)c(C(=O)NOCCO)cc21 + COc1c(OCCCN2CCOCC2)ccc2c3n(c(=NC(=O)c4cnc(N)nc4)nc12)CCN3
2. Cn1cnc2c(F)c(Nc3ccc(Br)cc3Cl)c(C(=O)NOCCO)cc21 + CC(Nc1ncnc2nc[nH]c12)c1cc2cccc(Cl)c2c(=O)n1-c1ccccc1

1: 12.5; 2: 21.2

###

- Tested on: 996289-038-R-J1-PDC spheroid viability
- Test: Anticancer human tumor 996289-038-R-J1-PDC cell line growth inhibition [PI3K];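 further: luminescence used as a proxy for viable cell amount; spheroids exposed to compounds for seven days before viability read; percent viability relative to DMSO vehicle control as 100%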
- Condition details: second compound 0.316 µM; first compound 10 µM; hits give low values; spheroids with HUVEC and MSC
Metric name: viability, T/C

Some solved cases for reference:
CC1(C)CCC(Nc2ncc(C(F)(F)F)c(-c3c[nH]c4c(P(C)(C)=O)c(C#N)ccc34)n2)CN1 (stereo not given) + Cc1nc(NC(=O)N2CCCC2C(N)=O)sc1-c1ccnc(C(C)(C)C(F)(F)F)c1: 24%
C=CC(=O)N1CCN(c2nc(=O)n(-c3c(C)ccnc3C(C)C)c3nc(-c4c(O)cccc4F)c(F)cc23)C(C)C1 (stereo not given) + Cc1nc(NC(=O)N2CCCC2C(N)=O)sc1-c1ccnc(C(C)(C)C(F)(F)F)c1: 89.9%

Hey, quick one: what's viability, T/C for each of these?
1. CC(Cn1ccc(-c2ccc(C#N)c(Cl)c2)n1)NC(=O)c1cc(C(C)O)[nH]n1 (stereo not given) + CC(Nc1ncnc2nc[nH]c12)c1cc2cccc(Cl)c2c(=O)n1-c1ccccc1
2. C[C@@H](NC(=O)c1ncnc(N)c1Cl)c1ncc(C(=O)Nc2cc(C(F)(F)F)c(Cl)cn2)s1 + CC(Nc1ncnc2nc[nH]c12)c1cc2cccc(Cl)c2c(=O)n1-c1ccccc1
3. CC(Cn1ccc(-c2ccc(C#N)c(Cl)c2)n1)NC(=O)c1cc(C(C)O)[nH]n1 (stereo not given) + COc1c(OCCCN2CCOCC2)ccc2c3n(c(=NC(=O)c4cnc(N)nc4)nc12)CCN3

91.3%
130%
39.9%

###

- Test system: 996289-038-R-J1-PDC spheroid viability
- Test: Anticancer human tumor 996289-038-R-J1-PDC cell line growth inhibition [PI3K];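 further: luminescence used as a proxy for viable cell amount; spheroids exposed to compounds for seven days before viability read; percent viability relative to DMSO vehicle control as 100%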
- Condition details: second compound 0.00316 µM; first compound 0.0316 µM; hits give low values; spheroids with HUVEC and MSC
Metric name: viability, T/C

Below, 4 compounds whose answers are already recorded.
CC(Cn1ccc(-c2ccc(C#N)c(Cl)c2)n1)NC(=O)c1cc(C(C)O)[nH]n1 (stereo not given) + COc1c(OCCCN2CCOCC2)ccc2c3n(c(=NC(=O)c4cnc(N)nc4)nc12)CCN3: 103%
CC1(C)CCC(CN2CCN(c3ccc(C(=O)NS(=O)(=O)c4ccc(NCC5CCOCC5)c([N+](=O)[O-])c4)c(Oc4cnc5[nH]ccc5c4)c3)CC2)=C(c2ccc(Cl)cc2)C1 + COc1c(OCCCN2CCOCC2)ccc2c3n(c(=NC(=O)c4cnc(N)nc4)nc12)CCN3: 88.5%
C=CC(=O)N1CCN(c2nc(=O)n(-c3c(C)ccnc3C(C)C)c3nc(-c4c(O)cccc4F)c(F)cc23)C(C)C1 (stereo not given) + COc1c(OCCCN2CCOCC2)ccc2c3n(c(=NC(=O)c4cnc(N)nc4)nc12)CCN3: 99.8%
C#Cc1c(F)ccc2cc(O)cc(-c3ncc4c(N5CC6CCC(C5)N6)nc(OCC56CCCN5CC(F)C6)nc4c3F)c12 (stereo not given) + COc1c(OCCCN2CCOCC2)ccc2c3n(c(=NC(=O)c4cnc(N)nc4)nc12)CCN3: 91.4%

Consider the record given below.
Fill in: viability, T/C of CC(C)n1nc(-c2ccc3oc(N)nc3c2)c2c(N)ncnc21 + CC(Nc1ccc2c(c1)OCCn1cc(N3C(=O)OCC3C(F)F)nc1-2)C(N)=O is ___
64.5%

###

- Test system: 996289-038-R-J1-PDC spheroid viability
- Test: Anticancer human tumor 996289-038-R-J1-PDC cell line growth inhibition [PI3K];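 further: luminescence used as a proxy for viable cell amount; spheroids exposed to compounds for seven days before viability read; percent viability relative to DMSO vehicle control as 100%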
- Condition details: second compound 0.316 µM; first compound 0.001 µM; hits give low values; spheroids with HUVEC and MSC
Labelling: viability, T/C reported below 80% becomes t; at or above becomes f.

CC(C)n1nc(-c2ccc3oc(N)nc3c2)c2c(N)ncnc21 + Cc1nc(NC(=O)N2CCCC2C(N)=O)sc1-c1ccnc(C(C)(C)C(F)(F)F)c1: f

Is viability, T/C strictly under 80% for the entry CC(=O)c1c(C)c2cnc(Nc3ccc(N4CCNCC4)cn3)nc2n(C2CCCC2)c1=O + CC(Nc1ncnc2nc[nH]c12)c1cc2cccc(Cl)c2c(=O)n1-c1ccccc1 ?
f

API: query returns whether the compound falls strictly under 80% in viability, T/C. Query: CC(C)n1nc(-c2ccc3oc(N)nc3c2)c2c(N)ncnc21 + CC(Nc1ccc2c(c1)OCCn1cc(N3C(=O)OCC3C(F)F)nc1-2)C(N)=O
t

I wonder whether CC(C)n1nc(-c2ccc3oc(N)nc3c2)c2c(N)ncnc21 + CC(Nc1ncnc2nc[nH]c12)c1cc2cccc(Cl)c2c(=O)n1-c1ccccc1 has viability, T/C below 80%. Can you tell?
f

###

Assignment: determine reported viability, T/C for the given molecules.
- Test system: 996289-038-R-J1-PDC spheroid viability
- Test: Anticancer human tumor 996289-038-R-J1-PDC cell line growth inhibition [PI3K];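 further: luminescence used as a proxy for viable cell amount; spheroids exposed to compounds for seven days before viability read; percent viability relative to DMSO vehicle control as 100%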
- Condition details: second compound 0.316 µM; first compound 10 µM; hits give low values; spheroids with HUVEC and MSC
Numbers only, in %.

Below: 3 molecules and their reported viability, T/C.
C#Cc1c(F)ccc2cc(O)cc(-c3ncc4c(N5CC6CCC(C5)N6)nc(OCC56CCCN5CC(F)C6)nc4c3F)c12 (stereo not given) + CC(Nc1ccc2c(c1)OCCn1cc(N3C(=O)OCC3C(F)F)nc1-2)C(N)=O: 21.6
CC1(C)CCC(CN2CCN(c3ccc(C(=O)NS(=O)(=O)c4ccc(NCC5CCOCC5)c([N+](=O)[O-])c4)c(Oc4cnc5[nH]ccc5c4)c3)CC2)=C(c2ccc(Cl)cc2)C1 + Cc1nc(NC(=O)N2CCCC2C(N)=O)sc1-c1ccnc(C(C)(C)C(F)(F)F)c1: 42.1
CNC(=O)c1ccc(N2C(=S)N(c3ccc(C#N)c(C(F)(F)F)c3)C(=O)C2(C)C)cc1F + CC(Nc1ncnc2nc[nH]c12)c1cc2cccc(Cl)c2c(=O)n1-c1ccccc1: 103

// each molecule listed below needs its viability, T/C
1. CC(C)NCC(C(=O)N1CCN(c2ncnc3c2C(C)CC3O)CC1)c1ccc(Cl)cc1 (stereo not given) + Cc1nc(NC(=O)N2CCCC2C(N)=O)sc1-c1ccnc(C(C)(C)C(F)(F)F)c1
2. CC(Cn1ccc(-c2ccc(C#N)c(Cl)c2)n1)NC(=O)c1cc(C(C)O)[nH]n1 (stereo not given) + Cc1nc(NC(=O)N2CCCC2C(N)=O)sc1-c1ccnc(C(C)(C)C(F)(F)F)c1
3. C#Cc1c(F)ccc2cc(O)cc(-c3ncc4c(N5CC6CCC(C5)N6)nc(OCC56CCCN5CC(F)C6)nc4c3F)c12 (stereo not given) + CC(Nc1ncnc2nc[nH]c12)c1cc2cccc(Cl)c2c(=O)n1-c1ccccc1
4. Cn1nccc1Nc1nccc(-c2ccn(C(CO)c3ccc(Cl)c(F)c3)c(=O)c2)n1 (stereo not given) + CC(Nc1ccc2c(c1)OCCn1cc(N3C(=O)OCC3C(F)F)nc1-2)C(N)=O

54.5
85.3
33.7
39.5
